Ref: the kinase profiling compilation of Christmann-Franck et al. (2016)

TESTED TARGET: AURKB (human)
ASSAY: radiometric filter-binding kinase assay, Kinase HotSpot
DETAILS: compound 0.5 µM; ATP 10 µM
Listed molecules paired with reported residual activity
Respond numerically; units are % and should not be typed.

COc1ccc(CNC(=O)Nc2ncc([N+](=O)[O-])s2)cc1 :: 97.1

Switching to the query record.
Q: State the recorded residual activity for this entry: `O=C(CCCc1ccc(-c2ccccc2F)cc1)Nc1ccc(O)cc1`
Result: 106

====

Listed compounds paired with reported residual activity
TESTED TARGET: CDK2 CCNE1 (human) (UniProt P24941+P24864)
Sequence (P24864 whole entry, looked up, other chains not shown): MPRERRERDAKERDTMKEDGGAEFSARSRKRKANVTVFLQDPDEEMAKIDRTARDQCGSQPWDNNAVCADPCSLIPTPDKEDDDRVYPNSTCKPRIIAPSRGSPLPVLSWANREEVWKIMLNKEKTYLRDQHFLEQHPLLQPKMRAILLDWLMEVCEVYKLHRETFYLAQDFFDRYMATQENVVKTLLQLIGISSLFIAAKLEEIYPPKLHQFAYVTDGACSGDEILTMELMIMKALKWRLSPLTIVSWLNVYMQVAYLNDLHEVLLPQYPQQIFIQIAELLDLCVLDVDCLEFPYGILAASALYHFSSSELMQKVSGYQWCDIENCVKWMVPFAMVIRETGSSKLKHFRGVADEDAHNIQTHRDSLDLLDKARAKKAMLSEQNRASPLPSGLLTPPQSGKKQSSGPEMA
ASSAY: radiometric filter-binding kinase assay, Kinase HotSpot
DETAILS: compound 0.5 µM; ATP 10 µM
Respond numerically; units are % and should not be typed.

Consider the worked cases shown below.
Cc1nc2cc3nc(-c4cccs4)cnc3cc2n1C :: 91.4
Nc1nccc(-c2c(-c3ccc(F)cc3)ncn2C2CCNCC2)n1 :: 92.1
Cn1nc2c3c(cccc31)C(=O)c1ccccc1-2 :: 89.4
CCn1cnc2c(Nc3cccc(Cl)c3)nc(N[C@@H]3CCCC[C@@H]3N)nc21 :: 16.8
Nc1nnc2[nH]c3ccccc3nc1-2 :: 85.5

Switching to the query record.
Q: State the recorded residual activity for this entry: `COc1ccc(OC)c2c(=S)c3ccccc3[nH]c12`
Result: 77.9

====

TESTED TARGET: MAPKAPK2 (human)
ASSAY: radiometric filter-binding kinase assay, Kinase HotSpot
DETAILS: compound 0.5 µM; ATP 10 µM
ENDPOINT: residual activity (%)
Respond numerically; units are % and should not be typed.

O=C(CCCc1ccc(-c2ccccc2F)cc1)Nc1ccc(O)cc1 :: 103
Cn1sc(=O)n(Cc2ccccc2)c1=O :: 102
Cn1nc2c3c(cccc31)C(=O)c1ccccc1-2 :: 102
O=C(O)/C=C/c1cc(Br)c(Br)c(Br)c1Br :: 91.5
CC(=O)O/N=C1\C(=C2\C(=O)Nc3cc(Br)ccc32)Nc2ccccc21 :: 109
CC(C)[C@H](CO)Nc1nc(Nc2cc(N)cc(Cl)c2)c2ncn(C(C)C)c2n1 :: 92.8

Q: State the recorded residual activity for this entry: `O=C(Nc1cccc(Nc2cc(Nc3cccc(C(F)(F)F)c3)ncn2)c1)C1CC1`
Result: 104

Q: Try this compound too: `CCn1cnc2c(Nc3cccc(Cl)c3)nc(N[C@@H]3CCCC[C@@H]3N)nc21`
Result: 94.9

Q: Try this compound too: `Nc1nnc2[nH]c3ccccc3nc1-2`
Result: 105

Q: Try this compound too: O=C1Nc2ccccc2/C1=C1/Nc2ccccc2/C1=N\OCCC(O)CO (configuration not stated)
Result: 98.4

Q: Try this compound too: `CC(C)c1nn(-c2c(Cl)cccc2Cl)c2nc(Cc3ccc(OCCO)cc3)nc(O)c12`
Result: 95.4

Q: Try this compound too: `CCN(CC)CCCCN1c2ccccc2Oc2ccc(Cl)cc21`
Result: 97.2

====

TESTED TARGET: NEK4 (human)
ASSAY: radiometric filter-binding kinase assay, Kinase HotSpot
DETAILS: compound 0.5 µM; ATP 10 µM
Listed compounds paired with reported residual activity
Respond numerically; units are % and should not be typed.

Consider the worked cases shown below.
O=C1Cc2c([nH]c3ccc(Br)cc23)-c2ccccc2N1 :: 98.9
Nc1nnc2[nH]c3ccccc3nc1-2 :: 97.8
COc1ccc(OC)c2c(=S)c3ccccc3[nH]c12 :: 87.7
O=C1NC(=O)/C(=C\c2ccc3nccnc3c2)S1 :: 93.1

Switching to the query record.
Q: State the recorded residual activity for this entry: `O=C(CCCc1ccc(-c2ccccc2F)cc1)Nc1ccc(O)cc1`
Result: 103
